The measured values listed here are drawn from ChEMBL document CHEMBL1157172.

The entries below come with measured log10(LD10) values attached.
system: Mus musculus; experiment: Acute toxicity in ip dosed BALB/c mouse after 30 days; format: organism-based; conditions: in vivo, 720 h
READOUT: log10(LD10) (log10 of the value in mg/kg)

> print(dat)
                               query.smiles  value.measured
1  CC(=O)N[C@H]1CC[C@H]2[C@@H]3NC(=O)C=C4C[C@@H](OC(=O)Cc5ccc(N(CCCl)CCCl)cc5)CC[C@]4(C)[C@H]3CC[C@]12C            1.78
2  CC(=O)N[C@H]1CC[C@H]2[C@@H]3NC(=O)C=C4C[C@@H](OC(=O)CCCc5ccc(N(CCCl)CCCl)cc5)CC[C@]4(C)[C@H]3CC[C@]12C            2.00
3  CC(=O)N[C@H]1CC[C@H]2[C@@H]3NC(=O)C=C4C[C@@H](OC(=O)c5ccc(C)c(N(CCCl)CCCl)c5)CC[C@]4(C)[C@H]3CC[C@]12C            2.38
4  CC(=O)N[C@H]1CC[C@H]2[C@@H]3C(=O)C=C4C[C@@H](OC(=O)CCCc5ccc(N(CCCl)CCCl)cc5)CC[C@]4(C)[C@H]3CC[C@]12C            1.64
5  CC(=O)N[C@H]1CC[C@H]2[C@@H]3C(=O)C=C4C[C@@H](OC(=O)c5ccc(C)c(N(CCCl)CCCl)c5)CC[C@]4(C)[C@H]3CC[C@]12C            2.60
6            O=C(O)CCCc1ccc(N(CCCl)CCCl)cc1            1.18
7  CC(=O)N[C@H]1CC[C@H]2[C@@H]3C(=O)C=C4C[C@@H](OC(=O)Cc5ccc(N(CCCl)CCCl)cc5)CC[C@]4(C)[C@H]3CC[C@]12C            1.40
